# Assay Notes: gradient 5% acetonitrile 3 min, to 50% in 2 min, to 85% in 15 min, held 3 min, 100 µL/min
# Setup Conditions: column: Zorbax Extend-C18 2.1 x 50 mm; eluents: water / acetonitrile, 0.1% formic acid
Recorded Metric: RP-LC retention time (s)

# Compound, RP-LC retention time [s]
measured = [
    ("Cc1cc(C)cc(NC(=O)Cn2cc(C(=O)N3CCCC3)c(=O)c3ccc(C)nc32)c1", 758),
    ("Cc1csc(-c2cn(CC(=O)Nc3ccc(C)c(F)c3)cn2)n1", 728),
    ("Cc1ccccc1CN1N=C(C(=O)N2CCOCC2)S(=O)(=O)c2ccccc21", 826),
    ("CCCC(=O)Nc1ccc(C(=O)Nc2nc(-c3ccccc3)cs2)cc1", 912),
    ("CC(C)N1C(=O)C(C)(C(=O)Nc2ccc(F)c(F)c2)Oc2cccnc21 (stereo not given)", 1030),
]

---

# Assay Notes: gradient 5% acetonitrile 3 min, to 50% in 2 min, to 85% in 15 min, held 3 min, 100 µL/min
# Setup Conditions: column: Zorbax Extend-C18 2.1 x 50 mm; eluents: water / acetonitrile, 0.1% formic acid
Recorded Metric: RP-LC retention time (s)

# Compound, Recorded Metric, Recorded Value
records = [
    ("CC(C)CC(NC(=O)Cc1cccs1)C(=O)Nc1nc2ccccc2[nH]1 (stereo not drawn)", "RP-LC retention time", 716),
]

P = COc1ccccc1OCc1nn2c(CSc3ccccc3)nnc2s1
Q = COc1ccc(-c2noc(Cc3nc(-c4ccc(Cl)cc4)cs3)n2)cc1
R = O=C(NCCc1ccncc1)C1CN(C(=O)c2ccncc2)CC12CCCCC2 (stereo not drawn)
Ranking field: RP-LC retention time; order: falling. Field: ranking. Enter the labels in the order requested.
Q, P, R
(Q: 1270 s, P: 882 s, R: 551 s)

---

# Assay Notes: gradient 5% acetonitrile 3 min, to 50% in 2 min, to 85% in 15 min, held 3 min, 100 µL/min
# Setup Conditions: column: Zorbax Extend-C18 2.1 x 50 mm; eluents: water / acetonitrile, 0.1% formic acid
Recorded Metric: RP-LC retention time (s)

Solved cases below.
# Molecule, Unit Of Measurement, Recorded Value
rows = [
    ("COCC1(O)CCOC2(CCN(Cc3c(F)cccc3Cl)CC2)C1 (stereo not given)", "s", 543),
    ("Cc1sc2ncn3c(=O)n(CC(=O)N4CCc5ccccc5C4)nc3c2c1C", "s", 894),
    ("CCC1CCCCN1CCCNC(=O)c1ccnc(-c2cccs2)c1 (stereo not given)", "s", 627),
    ("COCCN1C(=O)CCc2cc(NS(=O)(=O)c3ccc4c(c3)CCC4)ccc21", "s", 854),
    ("Cc1ccc(S(=O)(=O)N2CCC(n3cnc4c(C)cccc4c3=O)CC2)cc1", "s", 929),
    ("COCCNC(=O)c1nnn(-c2ccc(F)cc2)c1-c1ccncc1", "s", 663),
    ("Cc1cc(NC(=O)c2cnccn2)sn1", "s", 606),
    ("COc1cccc(CC(=O)NCC(=O)Nc2nc3ccccc3[nH]2)c1", "s", 618),
]

I = CC1(C(=O)NCc2ccccc2)Cn2cnc(C(=O)NCc3ccccc3F)c2C(=O)N1C1CC1 (stereo not given)
II = O=C(O)c1cc2ccccc2cc1Nc1ccccc1
Hey, between I and II which has a smaller measured RP-LC retention time? Refer to your chosen item by its label in the answer.
I
